- target_desc: UniProt P22413
- protocol_text: cGAMP-Glo enzymatic assay (2′3′-cGAMP substrate, AMP-Glo readout)
- Type: biochemical
- test_parameters: substrate 2′3′-cGAMP; 25° C. for 60 min; 50 mM Tris pH 8.8
pIC50: −log10 of the molar value.
Exercise: state measured pIC50 for each of the compounds provided.

Guide cases for pIC50, answers given:
compound	reported_result
COc1ncc2nc(C)n(C(C)c3ccc(S(N)(=O)=O)cc3)c2c1-c1ccccc1 (centres unmarked)	8.00 to 9.00
Cc1ncc2c(c1-c1ccccc1)n(Cc1ccc(S(N)(=O)=O)cc1)c(=O)n2C	> 9.00

Take each entry in turn and give its pIC50.
1. COc1ncc2nc(C(F)F)n(Cc3ncc(S(N)(=O)=O)cc3F)c2c1-c1ccccc1
2. Cc1ncc2ncn(Cc3ccc(S(N)(=O)=O)cc3)c2c1-c1ccccc1
3. Cc1ncc2c(c1C1=CCCC1)n(Cc1c(F)cc(S(N)(=O)=O)cc1F)c(=O)n2C
4. Cc1nc2cncc(-c3ccccc3)c2n1Cc1c(F)cc(S(N)(=O)=O)cc1F
5. COc1ncc2c(c1C1=CCCC1)n(Cc1c(F)cc(S(N)(=O)=O)cc1F)c(=O)n2C
6. Cc1ncc2ccn(Cc3ccc(NS(N)(=O)=O)cc3)c2c1-c1ccn(C)n1
7. Cc1ncc2nc(C)n(Cc3ccc(S(N)(=O)=O)cn3)c2c1-c1ccccc1

# output
> 9.00
> 9.00
> 9.00
> 9.00
> 9.00
6.00 to 7.00
> 9.00

Can you give me pIC50 for all of these, one by one?
1. Cc1ncc2nc(C)n(Cc3ccc(S(N)(=O)=O)nc3)c2c1-c1ccccc1
2. Cc1ncc2nc(C)n(Cc3c(F)cc(S(N)(=O)=O)cc3F)c2c1C1=CCCC1
3. COc1ncc2c(C)cn(Cc3ccc(NS(N)(=O)=O)cc3)c2c1-c1ccn(C)n1

# output
["> 9.00", "> 9.00", "7.00 to 8.00"]

###

- target_desc: ENPP1 (Homo sapiens (Human))
- protocol_text: ATP-Glo enzymatic assay (ATP substrate, AMP-Glo readout)
- Assay type: biochemical
- test_parameters: 25° C. for 60 min, 50 mM Tris pH 8.8
Task for the reader: assign each of the following molecules its reported IC50.

Consider the worked cases shown below.
smiles_record	target_desc	IC50
COc1ncc2nc(C)n(Cc3ccc(S(N)(=O)=O)c(F)c3)c2c1-c1ccccc1	ENPP1 (Homo sapiens (Human))	< 1 nM
Cc1ccccc1-c1c(C)ncc2ncn(Cc3c(F)cc(S(N)(=O)=O)cc3F)c12	ENPP1 (Homo sapiens (Human))	10 to 100 nM
Cc1ncc2c(C)cn(Cc3c(F)cc(S(N)(=O)=O)cc3F)c2c1-c1ccn(C)n1	ENPP1 (Homo sapiens (Human))	1 to 10 nM
Cc1ncc2nc(C)n(Cc3c(F)cc(S(N)(=O)=O)cc3F)c2c1-c1ccccc1	ENPP1 (Homo sapiens (Human))	< 1 nM

Now look at this one.
# input Quick one: IC50 of `Cc1ncc2nc(CN(C)C)n(Cc3c(F)cc(S(N)(=O)=O)cc3F)c2c1-c1ccccc1` ?
# output < 1 nM

###

- target_desc: ENPP1 (Homo sapiens (Human), UniProt P22413)
- Sequence (P22413 whole entry, species assumed): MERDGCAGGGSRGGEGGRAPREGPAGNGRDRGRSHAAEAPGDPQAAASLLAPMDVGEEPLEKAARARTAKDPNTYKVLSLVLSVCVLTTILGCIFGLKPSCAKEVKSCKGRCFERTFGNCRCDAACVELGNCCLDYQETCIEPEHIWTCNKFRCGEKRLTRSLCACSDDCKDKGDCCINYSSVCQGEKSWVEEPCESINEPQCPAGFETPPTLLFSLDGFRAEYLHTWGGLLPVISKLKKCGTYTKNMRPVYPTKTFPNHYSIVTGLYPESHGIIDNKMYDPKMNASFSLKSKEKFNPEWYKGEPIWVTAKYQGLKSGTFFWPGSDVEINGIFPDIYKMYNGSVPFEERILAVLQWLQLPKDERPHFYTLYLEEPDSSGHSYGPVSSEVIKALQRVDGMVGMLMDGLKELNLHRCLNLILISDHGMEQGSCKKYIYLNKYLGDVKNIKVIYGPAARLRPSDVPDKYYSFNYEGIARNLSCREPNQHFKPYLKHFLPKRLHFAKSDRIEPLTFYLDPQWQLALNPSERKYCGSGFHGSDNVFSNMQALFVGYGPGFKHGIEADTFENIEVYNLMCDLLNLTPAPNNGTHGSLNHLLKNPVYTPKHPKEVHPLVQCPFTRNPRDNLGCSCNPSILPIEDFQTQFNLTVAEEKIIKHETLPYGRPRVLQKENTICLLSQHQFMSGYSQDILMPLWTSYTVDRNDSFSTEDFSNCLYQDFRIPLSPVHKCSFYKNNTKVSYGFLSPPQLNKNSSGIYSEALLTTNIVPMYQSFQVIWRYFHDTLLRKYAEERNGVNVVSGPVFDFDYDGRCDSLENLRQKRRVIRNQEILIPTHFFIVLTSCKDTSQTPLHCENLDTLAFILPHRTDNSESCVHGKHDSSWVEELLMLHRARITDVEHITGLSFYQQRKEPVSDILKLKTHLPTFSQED
- protocol_text: ATP-Glo enzymatic assay (ATP substrate, AMP-Glo readout)
- Assay type: biochemical
- test_parameters: 25° C. for 60 min, 50 mM Tris pH 8.8
pIC50: −log10 of the molar value.
Please respond with reported pIC50 for every item in the list.

smiles_record	measure	reported_result
COc1ncc2c(C)cn(Cc3c(F)cc(S(N)(=O)=O)cc3F)c2c1-c1ccn(C)n1	pIC50	8.00 to 9.00
Cc1ncc2ncn(Cc3c(F)cc(S(N)(=O)=O)cc3F)c2c1-c1ccccc1	pIC50	> 9.00

Items follow; give pIC50 for each.
1. COc1ncc2c(C)cn(Cc3ccc(S(N)(=O)=O)cc3)c2c1-c1ccccn1
2. Cc1ncc2nc(C)n(Cc3ncc(S(N)(=O)=O)cc3F)c2c1-c1ccccc1

# output
["8.00 to 9.00", "> 9.00"]
